- Test system: RXF 393 renal
- measurement protocol: NCI-60 one-dose screen, 48 h (100 = growth as untreated, 0 = no growth, -100 = all killed)
- test parameters: 10 µM unless noted
Compounds without any hit were thinned out: in the full panel of roughly 83,000, 20% have a hit.
Label scheme for growth: lower than 50% is -1, 50% and above is 1.

N#Cc1c(-c2ccccc2)cc(-c2ccccc2)n(CCCCC(=O)NO)c1=O -1
Oc1ccc(-c2nc3ccc4[nH]ncc4c3c3c2CCCC3)c(F)c1 -1
C/C(=N\Nc1ccccc1)c1ccc(NC2=CC(=O)c3ccccc3C2=O)cc1 1
CC(C)Cc1nc(Nc2ccccc2)[nH]c(=O)c1C#N 1
O=C(OCc1ccc2c(Cl)cc(Cl)c(O)c2n1)N1CCN(C(=O)c2cc3ccccc3[nH]2)CC1 -1

---

// values below are reported growth
- Test system: SN12C renal
- measurement protocol: NCI-60 one-dose screen, 48 h (100 = growth as untreated, 0 = no growth, -100 = all killed)
- test parameters: 10 µM unless noted
The panel holds about 83,000 compounds, 20% with a hit somewhere; the sample as a whole holds those more often.
property: growth (%)

COC(=O)[C@@]12CC=C(C)[C@]3(C[C@H](c4ccoc4)OC3=O)[C@H]1C=C[C@@H](O)[C@@]2(O)C(=O)OC 104
O=C(Nc1ccccc1O)c1ccc(CNc2ccnc(C(F)(F)F)c2)cc1 48.8
COc1ccc(Cl)cc1Nc1nc(C(F)(F)F)ccc1C(=O)N/N=C/c1ccc([N+](=O)[O-])cc1 5.05
O=C1O[C@@H](c2ccccc2Cl)[C@@H]2c3cc4c(cc3CCN12)OCO4 103
Oc1ccc(-c2nc3ccc4[nH]ncc4c3c3c2CCCC3)c(F)c1 44.8

---

- Tested on: UACC-257 melanoma
- measurement protocol: NCI-60 one-dose screen, 48 h (100 = growth as untreated, 0 = no growth, -100 = all killed)
- test parameters: 10 µM unless noted
About 83,000 compounds went through this panel and 20% of them were active in at least one assay; those are over-represented in the sample as a whole. Calls of active or inactive are those of the source. How the source made its calls: active means growth percent below 10; inactive means the rest.
property: growth

O=C(Oc1ccc2c(c1)sc1nc(-c3ccccc3)[nH]c(=O)c12)C(F)(F)F 49.1% (inactive)
Cc1ccc(-c2csc(NC(=O)CSc3nc(N)cc(N)n3)n2)cc1 79.9% (inactive)
CC(C)CCC[C@@H](C)[C@H]1CC[C@H]2[C@@H]3CC=C4c5sc(Nc6cc(C(F)(F)F)cc(C(F)(F)F)c6)nc5CC[C@]4(C)[C@H]3CC[C@]12C 99.2% (inactive)
Cc1cc(NCCCNc2ccnc3cc(Cl)ccc23)nc(Nc2ccc(C(=O)N3CCCCC3)cc2)n1 -72.9% (active)
c1cc(OCCN2CCCCCC2)ccc1CNc1ccc2nc(CCC3CCCCC3)[nH]c2c1 31.8% (inactive)
CC1(C)CC[C@]23CC[C@]4(C)[C@H](CC[C@@H]5[C@@]6(C)CCNCC(C)(C)[C@@H]6CC[C@]54C)[C@H]2[C@H]1OC3 92.5% (inactive)
NS(=O)(=O)c1ccc(C(=O)NN2C(=O)c3ccccc3C2=O)cc1 110% (inactive)
O=C(NCc1ccc(Cn2c(=O)sn(-c3ccccc3)c2=O)cc1)OCc1ccc2cccc(O)c2n1 -25% (active)

---

- System: DU-145 prostate
- measurement protocol: NCI-60 one-dose screen, 48 h (100 = growth as untreated, 0 = no growth, -100 = all killed)
- test parameters: 10 µM unless noted
The panel holds about 83,000 compounds, 20% with a hit somewhere; the sample as a whole holds those more often.
Binarize growth at 80%; below is Satisfied, at or above is Not satisfied.

compound	label
C(=C(\C1=NCCN1)n1ccc2ccccc21)/c1ccccc1	Not satisfied
Cc1cc(=O)oc2cc(Oc3nc(Br)cn4c(Br)cnc34)ccc12	Satisfied
CC(=O)c1c(Nc2cccc(F)c2)[nH]c2c(Cl)cc(Cl)c(Cl)c2c1=O	Satisfied
COc1ccc(C(=O)C/C(=C\c2ccc(O)c(OC)c2)C(=O)NN)cc1	Not satisfied
COc1cccc(-c2cn3nc(-c4cn(C)c5ccccc45)sc3n2)c1	Not satisfied
Ic1ccc(Nc2nc3nonc3nc2Nc2ccc(I)cc2)cc1	Satisfied
CC1(C)N=C(N)N=C(N)N1c1ccc(S(=O)(=O)Nc2nccs2)cc1	Not satisfied
Nc1ccc(Br)cc1C(F)(F)F	Not satisfied
COc1ccc(/C=C/C(c2cc(OC)c(OC)c(OC)c2)n2cncn2)cc1O (stereo unspecified)	Satisfied
COc1ccc(CNc2ccc3nc(NC(=O)CN4CCCCCC4)sc3c2)cc1	Not satisfied

src = PubChem BioAssay (NCI)
